target-or-system: T1, human ALPPL2 (recombinant protein) (human, UniProt P10696 20-503)
T1 chain: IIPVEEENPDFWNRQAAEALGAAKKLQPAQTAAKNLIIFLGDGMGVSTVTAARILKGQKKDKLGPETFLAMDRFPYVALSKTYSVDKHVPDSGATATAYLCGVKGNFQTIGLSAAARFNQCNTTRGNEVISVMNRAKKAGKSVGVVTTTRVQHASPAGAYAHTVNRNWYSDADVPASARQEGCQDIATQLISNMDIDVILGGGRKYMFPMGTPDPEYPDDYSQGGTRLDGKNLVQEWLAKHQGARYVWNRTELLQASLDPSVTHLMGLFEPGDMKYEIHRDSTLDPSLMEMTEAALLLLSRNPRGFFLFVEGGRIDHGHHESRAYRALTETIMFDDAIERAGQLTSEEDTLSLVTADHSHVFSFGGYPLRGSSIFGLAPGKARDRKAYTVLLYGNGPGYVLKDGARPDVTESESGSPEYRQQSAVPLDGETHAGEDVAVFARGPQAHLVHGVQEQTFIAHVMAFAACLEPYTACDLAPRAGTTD
experimental-protocol: BLI; single concentration
Overview of recorded Kd for various binders
State just the number; it will be interpreted in nM.

A selection of reference data follows.
AB1C18 (antibody, V domains shown, Rabbit antibody cloned from a single B cell) VH: QSLEESGGDLVKPGASLTLTCTASGFSFSSYWTCWVRQAPGKGLEWLGCTDGGSSGDTYYATWAKGRVAISKTSSTTVTLQVTSLTAADTATYFCARNLITWDLWGPGTLVTVSS VL: IVMTQTPSSKSVPVGDTVTINCQASESVYNNNQLSWFQQKPGQPPKLLIYWASKLASGVPSRFKGSGSGTQFTLTISDVVCDDAATYYCAGYKSSITDGNAFGGGTEVVVK; 1.4
AB1C35 (antibody, V domains shown, Rabbit antibody cloned from a single B cell) VH: QEQLKESGGDLVKPGASLTLTCTASGFTLSTYWVCWVRQAPGKGLEWIGCIDTVSSGDTYFASWAKGRFTGSKTSSTTVTLQMTSLTAADTATYFCARRTGSRWTLWGPGTLVTVSS VL: QVLTQTPSSVSAGVGGTVTINCQASESVYNNNYLSWYQQKPGQPPKLLIYQASTLASGVPSRFKGSGSGTQFTLTISDVQCDDAATYYCLGAFVSNGWYFAFGGGTEVVVK; 4.1
AB1C12 (antibody, V domains shown, Rabbit antibody cloned from a single B cell) VH: QSLEESGGDLVKPGASLTLTCTASGFSFSSSYWISWVRQAPGKGLEWIACIAIGSSGTTYYASWAKGRFTISKTSSTTVTLQMTSLTAADTATYFCARSGDGYTYVELWGPGTLVTVSS VL: DVVMTQTPASVSEPVGGTVTIKCQASQSISSYLAWYQQKPGQPPKLLIYRASTLASGVPSRFKGSGSGTQFTLTISDLECADAATYYCQNYYDIDDSDNTFGGGTEVVVK; 0.8
AB2C130 (antibody, V domains shown, Rabbit antibody cloned from a single B cell) VH: QSLEESGGDLVKPGASLTLTCTASGFSFSSGYWICWVRQAPGKGLEWIACIYTGVGATYYASWAKGRFTISKTSSTTVTLQMTSLTAADTATYFCARDFGGSSGFYFNLWGPGTLVTVSS VL: FELTQTPSSVEAAVGATVTIKCQASQSISNALAWYQQKPGQPPKLLIYSASTLESGVPSRFKGSGSGTEFTLTISDLECADAATYYCQNYYGSTSSSYGVAFGGGTEVVVK; 0.001
AB1C29 (antibody, V domains shown, Rabbit antibody cloned from a single B cell) VH: QEHLEESGGGLVKPEGSLTLTCTASGFSFSSSYYMCWVRQAPGKGLEWIACIYPDDGNTYYASWAKGRFTISKTSSTTVTLQMTSLTAADTATYFCARALAYYAYVDGGHSYAINDFDLWGPGTLVTVSS VL: QVLTQTPSSVSAAVGGTVTINCQSSQSVFSNDYFSWYQQKPGQPPKLLIYDASRLASGVPSRFKGSGSGTQFTLTISGVQCDDAATYYCQGTYYSSAWYNAFGGGTEVVVK; 0.2

// switching to the query binder
What value of measured Kd is listed for AB2C129 (antibody, V domains shown, Rabbit antibody cloned from a single B cell) VH: QSLEESGGDLVKPGASLTLTCTASGFSFSSSYWICWVRQAPGKGLEWIACIYAGSSGDTYYASWAKGRFTISKTSSTTVTLQTTSLTAADTATYFCARAEYIDGYADYTYTTLYYFDLWGPGTPVTVSS VL: DVVMTQTPASVSEPVGGTVTINCQASESINSWLAWYQQKPGQPPKLLIYSASTLASGVPSRFKGSGSGIEFTLTISDLECADAATYFCQSYYSFSRFAFGGGTEVVVK ? 0.001
